target: UniProt Q8IK12; assay: IC50 for competition of protein binding to Kinobeads; details: assay detail: Kinobeads competition in P. falciparum blood-stage lysate
pIC50: −log10 of the molar value.
OBSERVATION_TYPE: pIC50

# COMPOUND, REPORTED_RESULT
measured = [
    ("O=c1[nH]c2ccc(Cl)cc2c(NC2CN3CCC2CC3)c1-c1nc2ccccc2[nH]1 (stereo unspecified) [CHIR-124]", "< 4.70"),
]

---

target: UniProt Q8I395; experiment: IC50 for competition of protein binding to Kinobeads; conditions: assay detail: Kinobeads competition in P. falciparum blood-stage lysate
Sequence (Q8I395 whole entry): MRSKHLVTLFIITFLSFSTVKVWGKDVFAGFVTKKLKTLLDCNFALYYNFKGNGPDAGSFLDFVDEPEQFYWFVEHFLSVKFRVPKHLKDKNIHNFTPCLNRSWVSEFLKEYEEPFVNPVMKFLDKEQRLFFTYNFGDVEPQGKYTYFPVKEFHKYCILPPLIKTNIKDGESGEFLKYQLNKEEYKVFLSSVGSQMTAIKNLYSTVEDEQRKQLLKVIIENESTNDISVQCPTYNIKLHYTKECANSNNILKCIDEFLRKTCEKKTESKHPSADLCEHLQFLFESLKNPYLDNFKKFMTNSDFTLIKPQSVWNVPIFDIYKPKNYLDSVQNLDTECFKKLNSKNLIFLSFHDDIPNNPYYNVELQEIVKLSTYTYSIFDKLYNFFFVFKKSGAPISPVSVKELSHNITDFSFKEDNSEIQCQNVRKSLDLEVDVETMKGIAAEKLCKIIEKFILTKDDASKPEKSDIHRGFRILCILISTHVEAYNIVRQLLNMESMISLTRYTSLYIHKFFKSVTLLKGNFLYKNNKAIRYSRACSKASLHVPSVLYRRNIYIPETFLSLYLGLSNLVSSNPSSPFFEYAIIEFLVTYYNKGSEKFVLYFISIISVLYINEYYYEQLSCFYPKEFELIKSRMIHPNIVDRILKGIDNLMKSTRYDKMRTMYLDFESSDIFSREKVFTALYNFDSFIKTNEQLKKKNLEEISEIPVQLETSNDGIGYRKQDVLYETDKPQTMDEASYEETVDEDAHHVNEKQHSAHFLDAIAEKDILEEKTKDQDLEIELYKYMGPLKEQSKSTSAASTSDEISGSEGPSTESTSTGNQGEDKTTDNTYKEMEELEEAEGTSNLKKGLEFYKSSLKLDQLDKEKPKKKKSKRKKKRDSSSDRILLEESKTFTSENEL

# COMPOUND, IC50
records = [
    ("O=c1[nH]c2ccc(Cl)cc2c(NC2CN3CCC2CC3)c1-c1nc2ccccc2[nH]1 (stereo unspecified)", "> 20 µM"),
]

---

target: UniProt Q8I635; assay: IC50 for competition of protein binding to Kinobeads; conditions: assay detail: Kinobeads competition in P. falciparum blood-stage lysate
OBSERVATION_TYPE: IC50

# COMPOUND, OBSERVATION_TYPE, REPORTED_RESULT
measured = [
    ("O=c1[nH]c2ccc(Cl)cc2c(NC2CN3CCC2CC3)c1-c1nc2ccccc2[nH]1 (stereo unspecified) [CHIR-124]", "IC50", "> 20 µM"),
]

---

target: UniProt Q8ID42; assay: IC50 for competition of protein binding to Kinobeads; conditions: assay detail: Kinobeads competition in P. falciparum blood-stage lysate
OBSERVATION_TYPE: IC50

# COMPOUND, OBSERVATION_TYPE, REPORTED_RESULT
data = [
    ("O=c1[nH]c2ccc(Cl)cc2c(NC2CN3CCC2CC3)c1-c1nc2ccccc2[nH]1 (stereo unspecified) [CHIR-124]", "IC50", "> 20 µM"),
]

---

target: UniProt Q8ILI9; test: IC50 for competition of protein binding to Kinobeads; details: assay detail: Kinobeads competition in P. falciparum blood-stage lysate

# COMPOUND, IC50
measured = [
    ("O=c1[nH]c2ccc(Cl)cc2c(NC2CN3CCC2CC3)c1-c1nc2ccccc2[nH]1 (stereo unspecified)", "> 20 µM"),
]

---

target: UniProt Q8I2W3; test: IC50 for competition of protein binding to Kinobeads; details: assay detail: Kinobeads competition in P. falciparum blood-stage lysate
pIC50: −log10 of the molar value.

# COMPOUND, TESTED_TARGET, pIC50
records = [
    ("O=c1[nH]c2ccc(Cl)cc2c(NC2CN3CCC2CC3)c1-c1nc2ccccc2[nH]1 (stereo unspecified)", "UniProt Q8I2W3", "< 4.70"),
]

---

molecular target: A0A144A0U7; experiment: apparent dissociation constant (Kd app) from Kinobeads competition; conditions: assay detail: Kinobeads competition in P. falciparum blood-stage lysate

# COMPOUND, READOUT_UNIT, Kd
measured = [
    ("O=c1[nH]c2ccc(Cl)cc2c(NC2CN3CCC2CC3)c1-c1nc2ccccc2[nH]1 (stereo unspecified) [CHIR-124]", "µM", 7.53),
]

---

target: UniProt Q8IIJ4; assay: IC50 for competition of protein binding to Kinobeads; conditions: assay detail: Kinobeads competition in P. falciparum blood-stage lysate
pIC50: −log10 of the molar value.
OBSERVATION_TYPE: pIC50

# COMPOUND, TESTED_TARGET, REPORTED_RESULT
data = [
    ("O=c1[nH]c2ccc(Cl)cc2c(NC2CN3CCC2CC3)c1-c1nc2ccccc2[nH]1 (stereo unspecified)", "UniProt Q8IIJ4", "< 4.70"),
]

---

molecular target: UniProt Q8I2W4; test: IC50 for competition of protein binding to Kinobeads; conditions: assay detail: Kinobeads competition in P. falciparum blood-stage lysate
pIC50: −log10 of the molar value.
OBSERVATION_TYPE: pIC50

# COMPOUND, TESTED_TARGET, REPORTED_RESULT
records = [
    ("O=c1[nH]c2ccc(Cl)cc2c(NC2CN3CCC2CC3)c1-c1nc2ccccc2[nH]1 (stereo unspecified) [CHIR-124]", "UniProt Q8I2W4", "< 4.70"),
]

---

molecular target: UniProt Q8I4Z4; test: IC50 for competition of protein binding to Kinobeads; conditions: assay detail: Kinobeads competition in P. falciparum blood-stage lysate
pIC50: −log10 of the molar value.
OBSERVATION_TYPE: pIC50

# COMPOUND, OBSERVATION_TYPE, REPORTED_RESULT
measured = [
    ("O=c1[nH]c2ccc(Cl)cc2c(NC2CN3CCC2CC3)c1-c1nc2ccccc2[nH]1 (stereo unspecified)", "pIC50", "< 4.70"),
]

---

target: UniProt Q8II22; assay: IC50 for competition of protein binding to Kinobeads; conditions: assay detail: Kinobeads competition in P. falciparum blood-stage lysate
pIC50: −log10 of the molar value.
OBSERVATION_TYPE: pIC50

# COMPOUND, REPORTED_RESULT
rows = [
    ("O=c1[nH]c2ccc(Cl)cc2c(NC2CN3CCC2CC3)c1-c1nc2ccccc2[nH]1 (stereo unspecified)", "< 4.70"),
]

---

molecular target: UniProt C6KTB9; assay: IC50 for competition of protein binding to Kinobeads; settings: assay detail: Kinobeads competition in P. falciparum blood-stage lysate
pIC50: −log10 of the molar value.

# MOLECULE, TESTED_TARGET, pIC50
rows = [
    ("O=c1[nH]c2ccc(Cl)cc2c(NC2CN3CCC2CC3)c1-c1nc2ccccc2[nH]1 (stereo unspecified) [CHIR-124]", "UniProt C6KTB9", "< 4.70"),
]

---

target: UniProt Q8IL94; test: IC50 for competition of protein binding to Kinobeads; details: assay detail: Kinobeads competition in P. falciparum blood-stage lysate

# COMPOUND, IC50
data = [
    ("O=c1[nH]c2ccc(Cl)cc2c(NC2CN3CCC2CC3)c1-c1nc2ccccc2[nH]1 (stereo unspecified) [CHIR-124]", "> 20 µM"),
]

---

target: UniProt Q8IE41; test: IC50 for competition of protein binding to Kinobeads; conditions: assay detail: Kinobeads competition in P. falciparum blood-stage lysate
OBSERVATION_TYPE: IC50 (nM)

# MOLECULE, READOUT_UNIT, REPORTED_RESULT
data = [
    ("O=c1[nH]c2ccc(Cl)cc2c(NC2CN3CCC2CC3)c1-c1nc2ccccc2[nH]1 (stereo unspecified) [CHIR-124]", "nM", 375),
]

---

target: UniProt Q8I1T4; test: IC50 for competition of protein binding to Kinobeads; settings: assay detail: Kinobeads competition in P. falciparum blood-stage lysate
pIC50: −log10 of the molar value.

# COMPOUND, pIC50
data = [
    ("O=c1[nH]c2ccc(Cl)cc2c(NC2CN3CCC2CC3)c1-c1nc2ccccc2[nH]1 (stereo unspecified)", "< 4.70"),
]

---

biological target: UniProt Q8I206; test: IC50 for competition of protein binding to Kinobeads; conditions: assay detail: Kinobeads competition in P. falciparum blood-stage lysate
pIC50: −log10 of the molar value.
OBSERVATION_TYPE: pIC50

# MOLECULE, REPORTED_RESULT
measured = [
    ("O=c1[nH]c2ccc(Cl)cc2c(NC2CN3CCC2CC3)c1-c1nc2ccccc2[nH]1 (stereo unspecified)", "< 4.70"),
]

---

biological target: UniProt Q8I305; assay: IC50 for competition of protein binding to Kinobeads; conditions: assay detail: Kinobeads competition in P. falciparum blood-stage lysate
pIC50: −log10 of the molar value.

# COMPOUND, TESTED_TARGET, pIC50
measured = [
    ("O=c1[nH]c2ccc(Cl)cc2c(NC2CN3CCC2CC3)c1-c1nc2ccccc2[nH]1 (stereo unspecified)", "UniProt Q8I305", "< 4.70"),
]

---

target: UniProt Q8IDR5; test: IC50 for competition of protein binding to Kinobeads; conditions: assay detail: Kinobeads competition in P. falciparum blood-stage lysate
pIC50: −log10 of the molar value.

# COMPOUND, TESTED_TARGET, pIC50
rows = [
    ("O=c1[nH]c2ccc(Cl)cc2c(NC2CN3CCC2CC3)c1-c1nc2ccccc2[nH]1 (stereo unspecified)", "UniProt Q8IDR5", "< 4.70"),
]

---

biological target: UniProt Q8IIU5; test: IC50 for competition of protein binding to Kinobeads; details: assay detail: Kinobeads competition in P. falciparum blood-stage lysate
OBSERVATION_TYPE: IC50

# COMPOUND, REPORTED_RESULT
rows = [
    ("O=c1[nH]c2ccc(Cl)cc2c(NC2CN3CCC2CC3)c1-c1nc2ccccc2[nH]1 (stereo unspecified)", "> 20 µM"),
]

---

target: UniProt Q8IAR6; assay: IC50 for competition of protein binding to Kinobeads; conditions: assay detail: Kinobeads competition in P. falciparum blood-stage lysate
pIC50: −log10 of the molar value.

# COMPOUND, pIC50
measured = [
    ("O=c1[nH]c2ccc(Cl)cc2c(NC2CN3CCC2CC3)c1-c1nc2ccccc2[nH]1 (stereo unspecified)", "< 4.70"),
]
